Recorded values, source PubChem BioAssay (EPA / NIEHS).

Biological target: Cellular tumor antigen p53 (Homo sapiens) (UniProt P04637)
Sequence (P04637 whole entry, looked up): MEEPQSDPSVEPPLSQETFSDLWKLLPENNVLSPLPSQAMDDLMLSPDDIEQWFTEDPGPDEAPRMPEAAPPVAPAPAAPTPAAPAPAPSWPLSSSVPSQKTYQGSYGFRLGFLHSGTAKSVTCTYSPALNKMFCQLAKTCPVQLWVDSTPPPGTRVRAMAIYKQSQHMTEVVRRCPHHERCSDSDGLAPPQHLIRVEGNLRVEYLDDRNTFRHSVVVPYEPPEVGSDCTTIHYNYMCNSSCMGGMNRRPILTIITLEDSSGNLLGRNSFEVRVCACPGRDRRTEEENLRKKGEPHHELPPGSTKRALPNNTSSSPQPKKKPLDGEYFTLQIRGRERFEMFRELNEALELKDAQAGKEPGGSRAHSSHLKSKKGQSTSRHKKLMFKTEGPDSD
Experiment: TOX21_p53_BLA_p4_ratio: Tox21 HCT-116 p53 Agonism Beta-lactamase Assay, Ratio, Phase 4 (AID 2283601)
Records with an inconclusive call do not appear. Activity calls are given as the source filed them. The calls were made as follows: active = hit-call score of the fitted dose curve at least 0.9, where 1 is the maximum; inconclusive = response in the unintended direction; inactive = score below 0.9.
RECORDED ENDPOINT: outcome

INSERT INTO measurements (compound, assay_system, reported) VALUES
  ('CC(C)(O)[C@@H]1[C@H]2OC(=O)[C@@H]1[C@]1(O)C[C@H]3O[C@]34C(=O)O[C@H]2[C@]14C (tested in a mixture with another compound)', 'Cellular tumor antigen p53 (Homo sapiens) (UniProt P04637)', 'inactive'),
  ('NC(=O)CN1CC(O)CC1=O (stereo not drawn)', 'Cellular tumor antigen p53 (Homo sapiens) (UniProt P04637)', 'inactive'),
  ('CCCN1CCC[C@@H]2Cc3[nH]ncc3C[C@H]21', 'Cellular tumor antigen p53 (Homo sapiens) (UniProt P04637)', 'inactive');
